target: Neuromedin-K receptor (Homo sapiens); test: Displacement of [125I]neurokinin B from human recombinant NK3 receptor expressed in CHO cells
Sequence (P29371 whole entry): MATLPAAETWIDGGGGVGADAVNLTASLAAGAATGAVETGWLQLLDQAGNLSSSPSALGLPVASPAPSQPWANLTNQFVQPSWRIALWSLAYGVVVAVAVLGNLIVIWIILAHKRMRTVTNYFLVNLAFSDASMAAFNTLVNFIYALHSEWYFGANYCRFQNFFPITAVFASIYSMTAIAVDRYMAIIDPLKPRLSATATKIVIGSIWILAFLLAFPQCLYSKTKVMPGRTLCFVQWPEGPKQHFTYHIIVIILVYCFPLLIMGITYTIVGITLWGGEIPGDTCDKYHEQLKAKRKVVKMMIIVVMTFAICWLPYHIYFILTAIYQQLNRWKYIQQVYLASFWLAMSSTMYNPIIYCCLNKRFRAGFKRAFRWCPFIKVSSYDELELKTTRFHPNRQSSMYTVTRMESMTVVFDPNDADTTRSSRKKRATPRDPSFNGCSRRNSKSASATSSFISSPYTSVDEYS

{"columns": ["line-notation", "assay-system", "Ki [µM]"],
 "data": [
  ["C[C@@H](OC[C@@]1(c2ccccc2)C[C@H](N2CCCC2=O)C(=O)N1)c1cc(C(F)(F)F)cc(C(F)(F)F)c1", "Neuromedin-K receptor (Homo sapiens)", 1.25],
  ["C[C@@H](OC[C@@]1(c2ccccc2)CCC(=O)N1)c1cc(C(F)(F)F)cc(C(F)(F)F)c1", "Neuromedin-K receptor (Homo sapiens)", 3.81]
]}

====

target: Substance-P receptor (Homo sapiens); assay: Displacement of [3H]Sar-Met substance P from human recombinant NK1 receptor expressed in CHO cells
Sequence (P25103 whole entry): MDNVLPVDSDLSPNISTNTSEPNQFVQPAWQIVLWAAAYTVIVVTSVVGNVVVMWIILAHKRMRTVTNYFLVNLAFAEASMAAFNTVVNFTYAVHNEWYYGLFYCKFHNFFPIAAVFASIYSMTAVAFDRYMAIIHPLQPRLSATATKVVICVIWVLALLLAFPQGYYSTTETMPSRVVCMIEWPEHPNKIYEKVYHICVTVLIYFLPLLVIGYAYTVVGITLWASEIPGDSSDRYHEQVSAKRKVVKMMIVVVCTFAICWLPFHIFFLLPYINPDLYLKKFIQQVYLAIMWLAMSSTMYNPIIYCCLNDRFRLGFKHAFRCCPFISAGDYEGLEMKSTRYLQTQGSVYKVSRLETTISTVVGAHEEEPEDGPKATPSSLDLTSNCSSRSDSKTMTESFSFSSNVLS
pKi: −log10 of the molar value.
Reported pKi values for the following compounds.

{"columns": ["line-notation", "assay-system", "pKi"],
 "data": [
  ["C[C@@H](OC[C@@]1(c2ccccc2)C[C@H](NS(C)(=O)=O)C(=O)N1)c1cc(C(F)(F)F)cc(C(F)(F)F)c1", "Substance-P receptor (Homo sapiens)", 9.22],
  ["C[C@@H](OC[C@@]1(c2ccccc2)C[C@H](N2CCCCC2=O)C(=O)N1)c1cc(C(F)(F)F)cc(C(F)(F)F)c1", "Substance-P receptor (Homo sapiens)", 9.70],
  ["C[C@@H](OC[C@@]1(c2ccccc2)C[C@@H](N2CCCCC2=O)C(=O)N1)c1cc(C(F)(F)F)cc(C(F)(F)F)c1", "Substance-P receptor (Homo sapiens)", 9.70]
]}
